Consider the following compounds; for each one, report its survival.
System: DeltatarO mutant
protocol-text: S. aureus survival, RN4220 and DeltatarO strains – OD600, teichoic acid synthesis inhibitors, primary screen (AID 463173)
test-context: S. aureus RN4220 wild type/DeltatarO growth, OD600, 18 h, stronger effect = lower value, screened at 18.75 µg/mL (by protocol)
In all, about 52,000 compounds went through this assay and about 4,300 (8.3%) were called active. For the sample, actives were picked, then their nearest neighbours and some compounds at random.
One number for each entry, in %.

The examples below pair each entry with its known result.
>  <compound>
CC(=O)c1c(C)n(-c2ccc(C)cc2)c2ccc(OC(=O)COc3ccccc3)cc12

>  <measurement-target>
DeltatarO mutant

>  <measurement-label>
survival

>  <observed-result>
62

$$$$
>  <compound>
COc1ccc(-c2ccc(CCC(=O)O)n2CC(=O)Nc2cccc(C(F)(F)F)c2)cc1

>  <measurement-target>
DeltatarO mutant

>  <measurement-label>
survival

>  <observed-result>
54

$$$$
>  <compound>
O=c1[nH]cnc2scc(-c3ccsc3)c12

>  <measurement-target>
DeltatarO mutant

>  <measurement-label>
survival

>  <observed-result>
104

$$$$
>  <compound>
CCc1ccc(-n2c(SCC(=O)NC(C)CC)nc3n[nH]c(C)c3c2=N)cc1 (stereo unspecified)

>  <measurement-target>
DeltatarO mutant

>  <measurement-label>
survival

>  <observed-result>
122

$$$$
>  <compound>
CCc1ccccc1NC(=O)Cn1nc(C(F)(F)F)c2c1CCC2

>  <measurement-target>
DeltatarO mutant

>  <measurement-label>
survival

>  <observed-result>
75

$$$$
>  <compound>
O=C(O)CCc1ccc(-c2ccccc2)n1-c1cccc(Br)c1

>  <measurement-target>
DeltatarO mutant

>  <measurement-label>
survival

>  <observed-result>
65

$$$$
>  <compound>
O=C(CSc1nc2c([nH]c3ccccc32)c(=O)n1-c1ccc(F)cc1)NCc1ccco1

>  <measurement-target>
DeltatarO mutant

>  <measurement-label>
survival

>  <observed-result>
81

$$$$
>  <compound>
Cc1cccc(NC(=O)c2cc(S(=O)(=O)N3CCc4ccccc43)ccc2F)c1C

>  <measurement-target>
DeltatarO mutant

>  <measurement-label>
survival

>  <observed-result>
65

$$$$
>  <compound>
COc1ccc(-n2c(SCC(=O)NCc3ccco3)nc3c([nH]c4ccccc43)c2=O)cc1

>  <measurement-target>
DeltatarO mutant

>  <measurement-label>
survival

>  <observed-result>
102

$$$$
>  <compound>
COc1ccc(OC)c(CNC(=O)c2cnc(N(C)C)nc2)c1

>  <measurement-target>
DeltatarO mutant

>  <measurement-label>
survival

>  <observed-result>
71

$$$$

Look up survival for the entries below, preserving their order.
1. COC(=O)c1ccccc1NC(=O)Cn1nc(C(F)(F)F)c2c1CCCC2
2. Cc1ccc(-c2ccc(CCC(=O)O)n2-c2cccc(O)c2)cc1

# output
[5, 68]

Hi there! I need survival for each item below, if you can.
1. COc1ccc(Cl)cc1NC(=O)Cn1nc(C(F)(F)F)c2c1CCC2
2. CC(C)Nc1nc(Cl)nc(NNC(=O)C(C)Oc2ccccc2)n1 (stereo unspecified)
3. CCc1ccc(-n2c(N3CCN(c4ccc(F)cc4)CC3)nc3ccccc3c2=O)cc1
4. Cc1ccc(-c2onc(C)c2C)cc1S(=O)(=O)Nc1ccc(Cl)cn1
5. Cc1ccc(N(CCO)S(=O)(=O)c2ccc(NC3=NS(=O)(=O)c4ccccc43)cc2)cc1
6. CCOc1ccc(CCNc2ncnc3onc(C)c23)cc1OCC
7. COc1ccc2c(c1)CCc1c(C(=O)Nc3c(C)nn(Cc4c(Cl)cccc4Cl)c3C)noc1-2

# output
1. 72
2. 93
3. 83
4. 97
5. 96
6. 71
7. 114

For each entry beneath this line, provide reported survival.
1. COc1ccc(-c2ccc(CCC(=O)O)n2CC(=O)Nc2cccc(Cl)c2C)cc1
2. O=C1CSC(c2ccccc2)N1Nc1nc(N2CCOCC2)nc(N2CCOCC2)n1 (stereo unspecified)

# output
1: 46; 2: 101

---

Tested on: DeltatarO mutant
protocol-text: S. aureus survival, RN4220 and DeltatarO strains – OD600, teichoic acid synthesis inhibitors, primary screen (AID 463173)
test-context: S. aureus RN4220 wild type/DeltatarO growth, OD600, 18 h, stronger effect = lower value, screened at 18.75 µg/mL (by protocol)
The campaign covered roughly 52,000 compounds. About 4,300 (8.3%) were called active. For the sample, actives were picked, then their nearest neighbours and some compounds at random.
Give survival for every item shown.
Numbers only, in %.

See these solved cases before continuing.
>  <molecule>
Cc1ccc(CCNS(=O)(=O)c2c(C)nc3sc(C)c(C)n3c2=O)cc1

>  <unit-abbrev>
%

>  <survival>
82

$$$$
>  <molecule>
CN(C)C(=O)c1ccc2c(c1)N(CC(=O)NCc1ccc(F)cc1)C(=O)C1CCCCN21 (stereo unspecified)

>  <unit-abbrev>
%

>  <survival>
74

$$$$
>  <molecule>
COc1ccc(NC(=O)c2c(NCc3cccs3)sc3c2CCCCC3)c(OC)c1

>  <unit-abbrev>
%

>  <survival>
69

$$$$
>  <molecule>
CCC(C)c1ccc(NC(=O)C2CCCN(c3ncccn3)C2)cc1 (stereo unspecified)

>  <unit-abbrev>
%

>  <survival>
81

$$$$
>  <molecule>
CC(=O)c1cccc(NC(=O)c2cc3sc(Cl)cc3n2C)c1

>  <unit-abbrev>
%

>  <survival>
122

$$$$

Batch lookup, survival per entry.
1. Cc1ccc(-n2cc(C(=O)OCc3ccc(Cl)cc3)c3ccccc3c2=O)cc1
2. O=C(Nc1cccnc1)c1cc(-c2cccc(Cl)c2)on1
3. CCOc1ccc(CCNC(=O)c2cc3c(=O)oc4ccc(C)cc4c3s2)cc1OCC
4. CC(C)N(C)NC(=S)Nc1ccccc1

# output
1. 67
2. 115
3. 67
4. 77

Report survival for every entry below.
1. COc1ccc2c(c1)N(C)/C(=C1/SC(=O)N(c3ccccc3)C1=O)S2
2. Fc1cccc(CSc2ccc(-c3cccs3)nn2)c1

# output
94
94

---

Tested on: DeltatarO mutant
protocol-text: S. aureus survival, RN4220 and DeltatarO strains – OD600, teichoic acid synthesis inhibitors, primary screen (AID 463173)
test-context: S. aureus RN4220 wild type/DeltatarO growth, OD600, 18 h, stronger effect = lower value, screened at 18.75 µg/mL (by protocol)
The campaign covered roughly 52,000 compounds. About 4,300 (8.3%) were called active. This excerpt belongs to a sample that is enriched for actives.
// boundary case: survival equal to 70% maps to rule not met; strictly smaller maps to rule met

The following compounds have reported results that may help.
>  <compound>
CCOc1cc(C(=O)N(Cc2nc(-c3ccc(C)cc3)no2)C(C)C)cc(OCC)c1OCC

>  <answer-label>
rule met

$$$$
>  <compound>
Cc1ccc(-c2noc(CNC(=O)c3ccc(C(C)(C)C)cc3)n2)cc1

>  <answer-label>
rule not met

$$$$
>  <compound>
CCOc1ccc(C(=O)NCc2nc(-c3ccc(Cl)cc3)no2)cc1OCC

>  <answer-label>
rule met

$$$$
>  <compound>
COc1ccccc1OCc1nc(C#N)c(NCc2ccc(C)cc2)o1

>  <answer-label>
rule not met

$$$$

Now examine the next entry.
# input Please state whether survival is below 70% for `N#Cc1nc(COc2cccc(Cl)c2)oc1NCCc1ccccc1`
# output rule met

---

Test system: DeltatarO mutant
protocol-text: S. aureus survival, RN4220 and DeltatarO strains – OD600, teichoic acid synthesis inhibitors, primary screen (AID 463173)
test-context: S. aureus RN4220 wild type/DeltatarO growth, OD600, 18 h, stronger effect = lower value, screened at 18.75 µg/mL (by protocol)
The campaign covered roughly 52,000 compounds. About 4,300 (8.3%) were called active. This excerpt belongs to a sample that is enriched for actives.
Provide the reported survival of each item.
One number for each entry, in %.

// worked examples, survival included
>  <compound>
O=C(Nc1c(C(=O)N2CCN(c3ccc(F)cc3)CC2)oc2ccccc12)c1c(F)cccc1F

>  <measurement-label>
survival

>  <observed-result>
95

$$$$
>  <compound>
COc1ccc(-c2noc(CNC(=O)c3ccco3)n2)cc1

>  <measurement-label>
survival

>  <observed-result>
87

$$$$
>  <compound>
CC(=O)c1cccc(-n2c(=O)c3c4c(sc3n(CC(=O)Nc3ccccc3F)c2=O)CN(C(C)=O)CC4)c1

>  <measurement-label>
survival

>  <observed-result>
123

$$$$
>  <compound>
Cc1ccc(CCNC(=O)CCc2cn(Cc3ccccc3C)c3ccccc23)cc1

>  <measurement-label>
survival

>  <observed-result>
68

$$$$
>  <compound>
Cc1ccc(OCCSc2nc3ccccc3n2CC(=O)N2CCOCC2)cc1C

>  <measurement-label>
survival

>  <observed-result>
53

$$$$

Field: survival. Fill in for each record below.
1. Cc1cccc(C)c1OCCSc1nc2ccccc2n1CC(=O)O
2. Cc1ccc(N2C(=O)CCSC23C(=O)N(Cc2ccccc2)c2ccccc23)cc1F (configuration not stated)
3. CN(C)S(=O)(=O)Nc1ccc(-c2cn3ccsc3n2)cc1

# output
[83, 89, 55]

Dear colleague, could you please provide survival for the compounds listed below?
1. CCN(CC)C(=O)Cn1c(SCCOc2ccc(Cl)cc2)nc2ccccc21
2. CCOc1ccc(NC(=O)CC2C(=O)N(c3cccc(C)c3)C(=O)N2Cc2ccco2)cc1 (configuration not stated)
3. CCCS(=O)(=O)Nc1cccc(-c2cn3ccsc3n2)c1
4. COc1ccccc1CNC(=O)CC(c1ccc(OC)c(OC)c1)N1Cc2ccccc2C1=O (configuration not stated)
5. Cc1ccc(OCCSc2nc3ccccc3n2CC(=O)NC(C)C)cc1
6. CCc1ccc(OCCSc2nc3ccccc3n2CC(=O)N2CCCCC2)cc1
7. COc1ccc(-c2noc(CNC(=O)c3ccc(OC)cc3OC)n2)cc1
8. CCc1ccc(-c2cn3nc(CC)sc3n2)cc1

# output
1: 43; 2: 83; 3: 134; 4: 83; 5: 52; 6: 40; 7: 62; 8: 66
